- TARGET_SYSTEM: S-methyl-5'-thioadenosine phosphorylase (Homo sapiens, UniProt Q13126)
- Sequence (Q13126 whole entry): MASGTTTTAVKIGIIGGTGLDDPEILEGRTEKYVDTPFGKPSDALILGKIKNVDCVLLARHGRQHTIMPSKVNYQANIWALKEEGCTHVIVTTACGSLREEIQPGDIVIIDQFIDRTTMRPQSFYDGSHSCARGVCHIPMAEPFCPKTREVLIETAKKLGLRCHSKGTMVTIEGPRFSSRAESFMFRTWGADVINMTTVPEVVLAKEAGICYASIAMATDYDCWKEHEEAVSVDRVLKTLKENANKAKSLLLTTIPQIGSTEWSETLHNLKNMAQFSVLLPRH

- MOLECULE: "C#C[C@H]1CN(Cc2c[nH]c3c(N)ncnc23)C[C@@H]1O (racemic)"
  Ki [nM]: 31
- MOLECULE: "Nc1ncnc2c(CN3C[C@H](c4ccccc4)[C@@H](O)C3)c[nH]c12 (racemic)"
  Ki [nM]: 8
- MOLECULE: "Nc1ncnc2c(CN3C[C@H](O)[C@@H](n4ccnn4)C3)c[nH]c12 (racemic)"
  Ki [nM]: 59
- MOLECULE: "CC[C@H]1CN(Cc2c[nH]c3c(N)ncnc23)C[C@H]1O (racemic)"
  Ki [nM]: 34
- MOLECULE: "C=CC[C@H]1CN(Cc2c[nH]c3c(N)ncnc23)C[C@@H]1O (racemic)"
  Ki [nM]: 3
- MOLECULE: "C=C[C@H]1CN(Cc2c[nH]c3c(N)ncnc23)C[C@@H]1O (racemic)"
  Ki [nM]: 3.2
- MOLECULE: "CC[C@H]1CN(Cc2c[nH]c3c(N)ncnc23)C[C@@H]1O"
  Ki [nM]: 0.7
- MOLECULE: "Nc1ncnc2c(CN3C[C@H](C4CC4)[C@@H](O)C3)c[nH]c12 (racemic)"
  Ki [nM]: 2.1
- MOLECULE: "Nc1ncnc2c(CN3C[C@H](CC4CCCCC4)[C@@H](O)C3)c[nH]c12 (racemic)"
  Ki [nM]: 14
- MOLECULE: "Nc1ncnc2c(CN3C[C@H](C4CCCC4)[C@@H](O)C3)c[nH]c12 (racemic)"
  Ki [nM]: 2.6
- MOLECULE: "CC(C)C[C@H]1CN(Cc2c[nH]c3c(N)ncnc23)C[C@@H]1O (racemic)"
  Ki [nM]: 1.7
- MOLECULE: "Nc1ncnc2c(CN3C[C@H](CCCSCc4ccccc4)[C@@H](O)C3)c[nH]c12 (racemic)"
  Ki [nM]: 71
